Reported log10 half-life at 10 µM values are given for each entry in this list.
# Experimental Protocol: Metabolic stability in Sprague-Dawley rat plasma at 10 uM by LC-MS/MS analysis
# Format: ADME, cell-free
# Measurement Parameters: Sprague-Dawley
Scale type: logarithmic (base 10). Underlying half-life at 10 µM unit: h.

Look over these answered cases.
| Molecule | Measured Parameter | Test Value |
| --- | --- | --- |
| O=C(CCc1ccccc1)NO | log10 half-life at 10 µM | 0.18 |
| O=C(Cc1ccc(F)cc1)NC(Cc1ccccc1)C(=O)NO (stereo not given) | log10 half-life at 10 µM | 0.11 |
| CC(C(=O)NO)C(=O)NCc1ccc(F)cc1 (stereo not given) | log10 half-life at 10 µM | 1.52 |
| CC(Cc1ccccc1)(C(=O)NO)C(=O)NCc1ccc(F)cc1 (stereo not given) | log10 half-life at 10 µM | 0.48 |
| O=C(COc1ccccc1)NO | log10 half-life at 10 µM | 0.48 |

Annotate the molecule `O=C(NO)c1ccc(C#CC2CC2)cc1` with its measured log10 half-life at 10 µM. 0.60

Recall and state the measured log10 half-life at 10 µM for CN(O)C(=O)C(Cc1ccccc1)C(=O)NCc1ccc(F)cc1 (stereo not given) . -0.30

Quickly give me recorded log10 half-life at 10 µM for `O=C(CCOc1ccccc1)NO` 0.15

Every entry's value here was drawn from ChEMBL document CHEMBL1154615.
